Target: UniProtKB P58681
Sequence (P58681 whole entry): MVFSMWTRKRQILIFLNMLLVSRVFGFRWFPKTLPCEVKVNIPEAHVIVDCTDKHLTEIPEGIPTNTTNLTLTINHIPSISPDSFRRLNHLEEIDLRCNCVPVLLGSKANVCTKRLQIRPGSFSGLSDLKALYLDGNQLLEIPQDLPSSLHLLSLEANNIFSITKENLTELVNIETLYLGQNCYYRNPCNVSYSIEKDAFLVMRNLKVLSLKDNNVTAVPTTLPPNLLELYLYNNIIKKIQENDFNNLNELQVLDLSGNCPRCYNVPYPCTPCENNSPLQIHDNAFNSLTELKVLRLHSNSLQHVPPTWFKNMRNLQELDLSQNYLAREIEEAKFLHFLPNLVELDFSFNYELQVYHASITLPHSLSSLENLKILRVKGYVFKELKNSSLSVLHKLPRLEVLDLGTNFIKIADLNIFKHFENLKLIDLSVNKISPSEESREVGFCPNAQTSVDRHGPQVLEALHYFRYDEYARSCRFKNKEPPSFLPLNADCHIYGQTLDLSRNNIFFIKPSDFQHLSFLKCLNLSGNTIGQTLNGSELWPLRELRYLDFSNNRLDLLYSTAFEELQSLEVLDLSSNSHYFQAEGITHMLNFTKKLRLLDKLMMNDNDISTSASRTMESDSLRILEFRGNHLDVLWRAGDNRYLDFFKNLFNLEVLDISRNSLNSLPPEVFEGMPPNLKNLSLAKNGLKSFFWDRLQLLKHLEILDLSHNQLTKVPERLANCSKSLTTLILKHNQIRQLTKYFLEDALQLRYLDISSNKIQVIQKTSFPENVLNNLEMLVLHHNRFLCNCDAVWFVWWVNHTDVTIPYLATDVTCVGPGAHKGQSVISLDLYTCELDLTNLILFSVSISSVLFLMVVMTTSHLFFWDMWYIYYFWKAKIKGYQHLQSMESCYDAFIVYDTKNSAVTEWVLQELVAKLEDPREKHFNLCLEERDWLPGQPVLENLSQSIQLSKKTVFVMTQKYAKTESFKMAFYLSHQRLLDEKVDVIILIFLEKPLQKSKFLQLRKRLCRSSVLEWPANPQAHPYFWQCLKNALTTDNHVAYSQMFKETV
Assay: Antagonist activity at TLR7 in mouse whole blood assessed as inhibition of DOTAP-ssRNA40 induced IFNalpha production preincubated for 30 mins followed by ssRNA40 addition measured after 20 hrs by ELISA
Experimental Endpoint: IC50
Kindly format the answer as number then unit.

Report IC50 for O=c1ccc(-c2cc(C(F)(F)F)c3nn([C@H]4CCNC[C@@H]4F)cc3c2)c2n1CCC2 please. 0.18 µM

---

Consider the following molecules; for each one, report its IC50.
Biological target: Toll-like receptor 4 (Homo sapiens, UniProt O00206)
Sequence (O00206 whole entry): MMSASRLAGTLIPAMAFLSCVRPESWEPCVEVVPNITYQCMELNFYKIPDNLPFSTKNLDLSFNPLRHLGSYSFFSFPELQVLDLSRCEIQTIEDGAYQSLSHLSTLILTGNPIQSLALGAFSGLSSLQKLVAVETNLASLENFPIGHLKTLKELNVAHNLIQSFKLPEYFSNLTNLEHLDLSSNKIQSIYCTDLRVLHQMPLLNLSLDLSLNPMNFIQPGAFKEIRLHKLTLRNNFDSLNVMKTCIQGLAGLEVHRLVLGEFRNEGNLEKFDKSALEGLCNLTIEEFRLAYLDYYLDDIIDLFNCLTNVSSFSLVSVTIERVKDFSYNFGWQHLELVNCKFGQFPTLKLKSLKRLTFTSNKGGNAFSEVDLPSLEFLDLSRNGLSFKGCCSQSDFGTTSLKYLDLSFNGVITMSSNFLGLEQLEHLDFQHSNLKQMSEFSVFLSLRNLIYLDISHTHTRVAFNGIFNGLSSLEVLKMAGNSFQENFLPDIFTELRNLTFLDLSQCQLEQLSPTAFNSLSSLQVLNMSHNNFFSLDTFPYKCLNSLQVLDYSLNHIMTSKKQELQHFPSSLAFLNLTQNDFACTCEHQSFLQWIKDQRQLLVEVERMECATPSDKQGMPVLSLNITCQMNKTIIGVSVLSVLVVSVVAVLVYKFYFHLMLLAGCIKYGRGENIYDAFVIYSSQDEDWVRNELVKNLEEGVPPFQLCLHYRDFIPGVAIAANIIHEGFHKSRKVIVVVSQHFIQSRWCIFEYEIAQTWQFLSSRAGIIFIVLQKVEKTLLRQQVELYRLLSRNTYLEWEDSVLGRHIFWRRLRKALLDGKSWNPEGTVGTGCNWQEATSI
Experiment: Antagonist activity at TLR4 in human PBMC assessed as inhibition of LPS-induced TNFalpha production preincubated for 30 mins followed by LPS addition and measured after 20 hrs by HTRF assay

Sample records with IC50:
Cc1cc(-c2ccc(=O)n(C)c2C)cc2cn(C3CCNCC3)nc12    > 10 µM
O=c1ccc(-c2cc(C(F)(F)F)c3nn([C@H]4CCNC[C@@H]4F)cc3c2)c2n1CCC2    > 6.5 µM

Note: attention shifts to another entry.
Report IC50 for Cc1cc(=O)n(C)cc1-c1cc(C)c2nn(C3CCNCC3)cc2c1 please. > 4.2 µM
